# Measured target: Rac GTPase-activating protein 1 (Homo sapiens, UniProt Q9H0H5)
# Sequence (Q9H0H5 whole entry): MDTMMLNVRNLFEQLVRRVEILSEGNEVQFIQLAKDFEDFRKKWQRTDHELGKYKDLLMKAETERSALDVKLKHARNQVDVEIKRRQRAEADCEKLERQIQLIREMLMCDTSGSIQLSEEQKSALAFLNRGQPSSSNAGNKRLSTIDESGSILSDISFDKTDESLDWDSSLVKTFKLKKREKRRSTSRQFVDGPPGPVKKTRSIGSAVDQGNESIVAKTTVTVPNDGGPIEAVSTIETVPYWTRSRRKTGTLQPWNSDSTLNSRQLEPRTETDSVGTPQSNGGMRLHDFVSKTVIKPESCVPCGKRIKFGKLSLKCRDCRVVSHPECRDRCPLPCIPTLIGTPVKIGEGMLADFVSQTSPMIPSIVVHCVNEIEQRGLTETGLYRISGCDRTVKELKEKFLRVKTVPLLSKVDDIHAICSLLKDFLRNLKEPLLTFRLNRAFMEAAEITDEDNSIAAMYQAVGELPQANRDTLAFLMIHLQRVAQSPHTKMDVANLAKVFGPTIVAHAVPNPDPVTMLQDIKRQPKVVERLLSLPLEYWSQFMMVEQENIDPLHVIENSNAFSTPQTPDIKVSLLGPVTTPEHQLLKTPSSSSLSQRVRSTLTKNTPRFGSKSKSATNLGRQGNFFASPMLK
# Experimental details: blockers of MgcRacGAP-driven Rac1 GTP hydrolysis – biochemical, ADP Hunter fluorescence, primary and confirmatory, confirmation (AID 624330)
# Type: functional
Calls of active or inactive are those of the source. How the calls were made is not given here.
Endpoint label: IC50

>>> result("C=CCOc1ccc(C=NNc2ccc(S(=O)(=O)Nc3ccccc3C(=O)O)cc2[N+](=O)[O-])cc1OC")
"65.6 µM (active)"
>>> result("Cc1ccc(NC(=O)C2=C(c3ccccc3)S(=O)(=O)CCS2(=O)=O)cc1")
"97.4 µM (active)"
>>> result("CCN(CC)c1ccc(/C=N\\NC(N)=O)cc1")
"50.7 µM (active)"
>>> result("Cc1ccc(NCCN(C)C)c2c(=O)c3cc(O)ccc3sc12")
"24 µM (active)"
>>> result("COc1cc(/C=C2/SC(=S)N(c3c(C)n(C)n(-c4ccccc4)c3=O)C2=O)ccc1O")
"43.7 µM (active)"
>>> result("COCCCNc1nc(S)nc2cc(OC)c(OC)cc12")
"69.7 µM (active)"
>>> result("CCN(Cc1ccncc1)Cc1ccc(OC)c(OC)c1")
"190 µM (active)"
>>> result("CC(C(=O)NC(=O)NC1CCCCC1)N1CCN(c2ccc(O)cc2)CC1 (centres undefined)")
"55.5 µM (active)"
>>> result("O=C(Cc1coc2cc(O)ccc12)N1CCN(S(=O)(=O)c2ccc(Br)cc2)CC1")
"21.6 µM (active)"
